test system: Shigella sp.
Binary call on MIC with cut-off 10 µg/mL: strictly below means MET, and equality or higher means NOT MET.

Dear reviewer, please state whether CS(=O)(=O)OC1=C(C(=O)O)N2C(=O)C(NC(=O)[C@H](N)c3ccccc3)C2SC1 (stereo partly drawn) has MIC strictly beneath 10 µg/mL.
NOT MET

API: query returns whether the compound falls strictly under 10 µg/mL in MIC. Query: CCCCS(=O)(=O)OC1=C(C(=O)O)N2C(=O)C(NC(=O)Cc3cccs3)[C@H]2SC1 (stereo partly drawn)
MET

API: query returns whether the compound falls strictly under 10 µg/mL in MIC. Query: O=C(Cc1cccs1)NC1C(=O)N2C(C(=O)O)=C(OS(=O)(=O)c3ccc(F)cc3)CS[C@H]12 (stereo partly drawn)
NOT MET

Item CS(=O)(=O)OC1=C(C(=O)O)N2C(=O)C(NC(=O)Cc3cccs3)[C@H]2SC1 (stereo partly drawn) : MIC beneath 10 µg/mL, strictly?
NOT MET

I wonder whether CCS(=O)(=O)OC1=C(C(=O)O)N2C(=O)C(NC(=O)Cc3cccs3)[C@H]2SC1 (stereo partly drawn) has MIC below 10 µg/mL. Can you tell?
MET

Hi there! Is MIC for Cc1ccc(S(=O)(=O)OC2=C(C(=O)O)N3C(=O)C(NC(=O)Cc4cccs4)[C@H]3SC2)cc1 (stereo partly drawn) below 10 µg/mL, do you know?
NOT MET

---

assay: Electrometric titration; format: physicochemical; settings: 80% aqueous methyl cellosolve, 80 percent aqueous methyl cellosolve; read-out: pKa
experimentalReadout: pKa
Kindly provide the number alone.

Answer with the recorded pKa of O=C(Cc1cccs1)NC1C(=O)N2C(C(=O)O)=C(OS(=O)(=O)c3ccc(F)cc3)CS[C@H]12 (stereo partly drawn) [Compound 5] only.
4.25

Let me know recorded pKa for CS(=O)(=O)OC1=C(C(=O)O)N2C(=O)C(NC(=O)Cc3cccs3)[C@H]2SC1 (stereo partly drawn) [Compound 1] , thanks.
3.9

Read the entry CCCCS(=O)(=O)OC1=C(C(=O)O)N2C(=O)C(NC(=O)Cc3cccs3)[C@H]2SC1 (stereo partly drawn) [Compound 3] and write its reported pKa.
4.75

Name the recorded pKa of the item CCS(=O)(=O)OC1=C(C(=O)O)N2C(=O)C(NC(=O)Cc3cccs3)[C@H]2SC1 (stereo partly drawn) [Compound 2] in your answer.
4.15

Identify pKa associated with the compound Cc1ccc(S(=O)(=O)OC2=C(C(=O)O)N3C(=O)C(NC(=O)Cc4cccs4)[C@H]3SC2)cc1 (stereo partly drawn) [Compound 4]
4.4

Output measured pKa for this item: CS(=O)(=O)OC1=C(C(=O)O)N2C(=O)C(NC(=O)[C@H](N)c3ccccc3)C2SC1 (stereo partly drawn) [Compound 6]
3.6

---

test: Electrometric titration; format: physicochemical; details: 80% aqueous methyl cellosolve, 80 percent aqueous methyl cellosolve; second of two pKa values; read-out: pKa (second value)
experimentalReadout: pKa
Please give the numeric answer without any surrounding text.

Quote pKa reported for CS(=O)(=O)OC1=C(C(=O)O)N2C(=O)C(NC(=O)[C@H](N)c3ccccc3)C2SC1 (stereo partly shown) [Compound 6] please.
6.75
